The reported measurements were obtained from patent US20230340128A1.

# SYSTEM UNDER TEST: human mesothelin (MSLN) (human) (UniProt Q13421)
# EXPERIMENTAL DETAILS: BLI (Octet), bsAb in 1+1 Fab-scFv-Fc format
MEASURED PARAMETER: Response
Form field (numeric): enter value without unit.

Example cases with answers are listed next.
BINDER	Response
XENP32566 (bispecific antibody, part only; not given: anti-CD3 scFv-Fc arm, constant regions, V domains shown, not shown: another chain or arm of the molecule; a dimerising Fc or GST; small tags and cut ends) VH: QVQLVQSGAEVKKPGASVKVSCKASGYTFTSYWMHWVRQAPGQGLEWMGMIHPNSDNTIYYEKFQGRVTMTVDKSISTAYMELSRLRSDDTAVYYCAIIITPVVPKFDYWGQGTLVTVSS VL: DIVMTQSPDSLAVSLGERATINCKASHDVGTSVAWYQQKPGQSPKLLIYWASTRHSGVPDRFTGSGSGTDFTLTISSLQAEDVAVYFCQQYSSYPLTFGAGTKLEIK	1.05
XENP32551 (bispecific antibody, part only; not given: anti-CD3 scFv-Fc arm, constant regions, V domains shown, not shown: another chain or arm of the molecule; a dimerising Fc or GST; small tags and cut ends) VH: QVQLVQSGAEVKKPGASVKVSCKASGYTFTSYYMHWVRQAPGQGLEWMGMIHPNSDNTIYYEKFQGRVTMTVDKSISTAYMELSRLRSDDTAVYYCAIIITPVVPKFDYWGQGTLVTVSS VL: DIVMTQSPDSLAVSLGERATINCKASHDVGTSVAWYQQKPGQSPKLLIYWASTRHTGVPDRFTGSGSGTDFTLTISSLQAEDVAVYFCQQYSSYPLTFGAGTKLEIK	1.19

# next binder below
Problem: Any idea what its Response is? The binder is XENP31701 (bispecific antibody, part only; not given: anti-CD3 scFv-Fc arm, constant regions, V domains shown, not shown: another chain or arm of the molecule; a dimerising Fc or GST; small tags and cut ends) VH: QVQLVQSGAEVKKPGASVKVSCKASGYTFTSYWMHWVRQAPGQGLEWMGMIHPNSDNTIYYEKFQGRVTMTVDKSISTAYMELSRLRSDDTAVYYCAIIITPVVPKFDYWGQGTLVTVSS VL: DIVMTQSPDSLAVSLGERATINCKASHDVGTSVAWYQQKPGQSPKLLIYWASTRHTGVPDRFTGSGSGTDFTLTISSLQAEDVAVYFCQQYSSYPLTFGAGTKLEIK
Solution: 0.86
